Tested on: A498 renal
test: NCI-60 one-dose screen, 48 h
reportedConditions: 10 µM unless noted
This is part of a sample that, as a whole, favours compounds with a hit. Of some 83,000 tested, about 20% had one in any assay. Activity calls are given as the source filed them. How the source made its calls: active means growth percent below 10; inactive means the rest.
Return exactly one item of y = active, n = inactive

## Task State the result this test recorded for `O=C(/C=C\c1cc(Br)ccc1O)/C=C/c1cc(Br)ccc1O` .
## Result y

## Task Follow-up item: `CC(C)c1ccc2nc3ccc(C(=O)NCCN4CCN(c5ccccc5)CC4)cn3c(=O)c2c1`
## Result n

## Task Follow-up item: `COC(=O)c1nc(=S)[nH]c(C(=O)OC)c1C(=O)c1ccc2ccccc2c1`
## Result n

## Task Follow-up item: `O=C(/C=C/C=C/c1ccccc1)c1ccco1`
## Result n

The reported numbers originate from PubChem BioAssay (NCI).
